Reference source for all entries: the supplement of paper PMC3334620

# system: Stb5 (UniProt P38699)
# Sequence: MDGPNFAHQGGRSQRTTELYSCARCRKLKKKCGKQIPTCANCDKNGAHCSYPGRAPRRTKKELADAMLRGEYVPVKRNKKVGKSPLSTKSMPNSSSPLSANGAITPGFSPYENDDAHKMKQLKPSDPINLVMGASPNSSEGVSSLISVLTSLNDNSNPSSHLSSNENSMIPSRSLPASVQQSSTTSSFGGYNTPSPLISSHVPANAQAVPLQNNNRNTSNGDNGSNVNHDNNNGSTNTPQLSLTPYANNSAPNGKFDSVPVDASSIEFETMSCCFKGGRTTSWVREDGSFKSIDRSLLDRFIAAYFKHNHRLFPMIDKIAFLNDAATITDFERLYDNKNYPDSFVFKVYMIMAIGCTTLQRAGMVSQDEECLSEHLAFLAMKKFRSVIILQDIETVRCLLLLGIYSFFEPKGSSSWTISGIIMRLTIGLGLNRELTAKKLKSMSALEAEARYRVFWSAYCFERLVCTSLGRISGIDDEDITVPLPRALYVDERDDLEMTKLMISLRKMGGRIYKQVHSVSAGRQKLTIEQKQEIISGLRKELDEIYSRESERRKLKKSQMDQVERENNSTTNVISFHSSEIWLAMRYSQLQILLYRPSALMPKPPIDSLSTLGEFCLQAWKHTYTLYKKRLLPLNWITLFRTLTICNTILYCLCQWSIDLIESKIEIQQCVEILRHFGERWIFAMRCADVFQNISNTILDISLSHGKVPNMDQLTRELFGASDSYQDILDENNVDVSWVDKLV
# measurement.notes: PBM E-score (8-mer binding enrichment) (E-score (-0.5 to 0.5)); higher = stronger / more preferred TF binding
# settings: protein concentration: 200 nM; construct: GST-full length
Whole data set: some 33,000 sequences, median “E-score (-0.5 to 0.5)” near -0.054, cut for the highest 2% near 0.35. Many of the other results were omitted from the sample, so the highest values are more common in it than they were.
# key: entry, value: PBM E-score
Provide a numeric answer; units are not to be included.

Known results for sequences:
ATGAAAAC    0.116
CCCTCTTA    -0.167
CTCGTTTC    -0.214
ACCTGAAA    -0.098
AAAGACCA    -0.216

// query Could you share which PBM E-score value was measured for `AATGACCG` ?
// result 0.365

// query Further, for `AAGGACCT` ?
// result 0.00048

// query // repeat for `GCACCCGA` and report
// result 0.0572

// query Do the same for `AATGACCA` please
// result -0.133

// query Item: `CTCGGGGA`
// result 0.0793

// query Request: `ATCGGGGA`
// result 0.307

###

Listing of entries alongside the reported PBM E-score.
# system: Stb5 (UniProt P38699)
# Sequence: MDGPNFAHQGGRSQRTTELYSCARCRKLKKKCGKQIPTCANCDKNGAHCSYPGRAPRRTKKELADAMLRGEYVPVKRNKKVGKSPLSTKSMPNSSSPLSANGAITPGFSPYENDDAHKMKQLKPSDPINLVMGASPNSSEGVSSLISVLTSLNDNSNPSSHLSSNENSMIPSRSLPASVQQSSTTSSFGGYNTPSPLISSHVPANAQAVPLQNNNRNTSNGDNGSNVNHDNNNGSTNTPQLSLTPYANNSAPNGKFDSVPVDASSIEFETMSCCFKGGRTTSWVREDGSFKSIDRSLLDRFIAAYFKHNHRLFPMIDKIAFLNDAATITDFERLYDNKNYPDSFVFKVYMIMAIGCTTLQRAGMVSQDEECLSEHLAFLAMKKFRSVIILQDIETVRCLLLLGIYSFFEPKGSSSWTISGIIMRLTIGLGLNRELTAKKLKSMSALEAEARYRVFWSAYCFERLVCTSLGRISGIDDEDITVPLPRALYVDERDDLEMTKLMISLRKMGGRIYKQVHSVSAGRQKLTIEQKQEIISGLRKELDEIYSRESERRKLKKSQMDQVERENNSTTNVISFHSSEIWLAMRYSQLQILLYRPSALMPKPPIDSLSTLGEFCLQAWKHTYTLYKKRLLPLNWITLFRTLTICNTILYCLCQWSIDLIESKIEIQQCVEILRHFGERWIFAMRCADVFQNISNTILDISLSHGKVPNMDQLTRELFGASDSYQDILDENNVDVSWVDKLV
# measurement.notes: PBM E-score (8-mer binding enrichment) (E-score (-0.5 to 0.5)); higher = stronger / more preferred TF binding
# settings: protein concentration: 200 nM; construct: GST-full length
Whole data set: some 33,000 sequences, median “E-score (-0.5 to 0.5)” near -0.054, cut for the highest 2% near 0.35. This excerpt belongs to a sample that is enriched for the highest values.

ATCACCTG    0.0314
CTCACCGC    0.164
AGGTCCAA    -0.167
TGGAATAA    -0.14
GGGTCCGA    0.332
CGGTCCAA    0.186

// query Which value of PBM E-score has been reported for `AGGTCCTG` in the records?
// result -0.205

// query Please answer likewise for `CGGTCCCA`
// result 0.358
